This section presents binders with their documented in vitro activity (%, relative to SEQ ID NO: 1); cAMP assay, from EC50 values.
Target: human glucagon receptor (human, UniProt P47871 26-477)
Sequence (P47871 26-477): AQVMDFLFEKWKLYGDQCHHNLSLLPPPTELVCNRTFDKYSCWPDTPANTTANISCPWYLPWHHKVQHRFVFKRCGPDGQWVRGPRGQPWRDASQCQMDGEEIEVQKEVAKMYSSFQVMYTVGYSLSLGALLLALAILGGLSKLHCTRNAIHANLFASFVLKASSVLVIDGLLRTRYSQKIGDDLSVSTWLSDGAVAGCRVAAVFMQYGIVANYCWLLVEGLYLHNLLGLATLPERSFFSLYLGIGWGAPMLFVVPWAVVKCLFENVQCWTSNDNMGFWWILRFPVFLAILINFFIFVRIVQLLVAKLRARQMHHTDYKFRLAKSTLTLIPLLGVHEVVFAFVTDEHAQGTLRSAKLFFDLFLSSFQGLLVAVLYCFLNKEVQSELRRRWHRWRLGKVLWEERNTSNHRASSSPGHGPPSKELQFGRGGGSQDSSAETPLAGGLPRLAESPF
Assay: cell-based or functional assay
Positions of bridges follow the written chain, without caps; N, C: chain ends. Non-standard residues stand in square brackets, D forms with d. No end group written: not given here. Aib = CC(C)(N)C(=O)O
Please give a number only; it is taken to be in %.

Worked examples, 4 binders total:
# binder, reported-value
records = [
    ("HSQGTFTSDYSKYLDCDRAQDFVQWLMNT [glucagon derivative of SEQ ID NO: 2]", 0.6),
    ("Y[Aib]QGTFTSDYSKYLDEKRCKEFVQWLMNT (lactam 16-20) [glucagon derivative of SEQ ID NO: 22]", 148),
    ("Y[Aib]QGTFVSDCSKYLDERRAKDFVQWLMNT (lactam 16-20) [glucagon derivative of SEQ ID NO: 39]", 3.7),
    ("Y[Aib]QGTFTSDYSKYLDCRRAQVFVQWLMRT [glucagon derivative of SEQ ID NO: 16]", 4.2),
]

Y[Aib]QGTFTSDYSKYLCEKRAKEFVQWLMNT (lactam 16-20) [glucagon derivative of SEQ ID NO: 19] has a reported in vitro activity (%, relative to SEQ ID NO: 1); cAMP assay, from EC50 of 12.1

Y[Aib]QGTFTSDYSKCLDEKRAKEFVQWLMNT (lactam 16-20) [glucagon derivative of SEQ ID NO: 24] has a reported in vitro activity (%, relative to SEQ ID NO: 1); cAMP assay, from EC50 of 58

Y[Aib]QGTFTSDCSKYLDSRRAQDFVQWLMNT [glucagon derivative of SEQ ID NO: 43] has a reported in vitro activity (%, relative to SEQ ID NO: 1); cAMP assay, from EC50 of 1.6

Y[Aib]QGTFCSDYSKYLDSRRAQDFVQWLMNT [glucagon derivative of SEQ ID NO: 42] has a reported in vitro activity (%, relative to SEQ ID NO: 1); cAMP assay, from EC50 of 37.9

Y[Aib]QGTFTSDYSKCLDERRAKDFVQWLMNT (lactam 16-20) [glucagon derivative of SEQ ID NO: 29] has a reported in vitro activity (%, relative to SEQ ID NO: 1); cAMP assay, from EC50 of 61.3

W[Aib]QGTFTSDYSKYLDECRAKDFVQWLMNT (lactam 16-20) [glucagon derivative of SEQ ID NO: 26] has a reported in vitro activity (%, relative to SEQ ID NO: 1); cAMP assay, from EC50 of 1

Y[Aib]QGTFVSDYSKYLDERRAKDFVQWLMNTC (lactam 16-20) [glucagon derivative of SEQ ID NO: 40] has a reported in vitro activity (%, relative to SEQ ID NO: 1); cAMP assay, from EC50 of 40.8
